- TARGET DESC: FRMPD2_3, Q68DX3
- Sequence (Q68DX3 1073-1166): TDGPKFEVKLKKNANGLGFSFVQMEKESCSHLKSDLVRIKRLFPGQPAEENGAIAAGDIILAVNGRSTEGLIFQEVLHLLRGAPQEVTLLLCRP
- ASSAY NOTES: holdup assay
- Parameters: key: below the threshold = too weak to quantify, mostly under pKd 3.1 to 4
- DETAILS: plain residues with an end cap or a label only (N-terminal biotin on a linker: ahx)
READOUT: pKd

INSERT INTO assay_data (binder, readout, value_reported) VALUES
  ('SAPATLSSRA [PDLIM2, Q96JY6]', 'pKd', 'below the threshold'),
  ('HSATSVHTSV [MTMR1, Q13613]', 'pKd', 'below the threshold'),
  ('PKMKLNETSF [SHKBP1, Q8TBC3]', 'pKd', 'below the threshold'),
  ('KDECVIATEV [DLL1, O00548]', 'pKd', 'below the threshold'),
  ('SKKNELFSNL [NHERF1, O14745]', 'pKd', 'below the threshold'),
  ('VNENQKEYFF [CNTNAP4, Q9C0A0]', 'pKd', 'below the threshold'),
  ('AKPQPVDSWV [ARVCF, O00192]', 'pKd', 'below the threshold'),
  ('ADENEQVSAV [RAPGEF6, Q8TEU7]', 'pKd', 'below the threshold'),
  ('YNSFLSVTTV [PDZRN3, Q9UPQ7]', 'pKd', 'below the threshold'),
  ('KEYDDELTFF [USH1C, Q9Y6N9]', 'pKd', 'below the threshold');
